Target: Estrogen receptor (Homo sapiens)
Method description: Displacement of [3H]-estradiol from human full-length ERalpha receptor by competitive radiometric binding assay relative to estradiol
Parameter measured: RBA (%)

{"columns": ["Chemical structure", "Target", "RBA [%]"],
 "data": [
  ["Cc1c(-c2ccc(O)cc2)cc(Cl)c(O)c1/C=N/O", "Estrogen receptor (Homo sapiens)", 1.47]
]}

(P) O/N=C/c1c(O)ccc(-c2ccc(O)c(F)c2)c1Cl
(Q) Cc1cc(-c2ccc(O)cc2)c(Cl)c(/C=N/O)c1O
Challenge: Lower value for measured RBA? Options: P , Q Reply with the label of the item you choose.
Response given: Q
(Q: 0.074%, P: 1.88%)
